Measured MIC Meropenem + inhibitor, listed per entry for reference.
# Test system: E. coli ATCC 25922
# EXPERIMENT SUMMARY: MIC, antibacterial and synergistic activity
# Type: cell-based
# RUN PARAMETERS: E. coli ATCC 25922 (Wt); Meropenem + inhibitor at 4 µg/mL

Below, 3 compounds whose answers are already recorded.
INSERT INTO assay_data (compound, reported_measurement) VALUES
  ('O=C(NO[C@H]1CCCNC1)[C@@H]1CC[C@@H]2CN1C(=O)N2OS(=O)(=O)O [Ex. 2]', '≤.031 µg/mL'),
  ('O=C(NNC(=O)[C@H]1CC[C@H]2CN1C(=O)N2OS(=O)(=O)O)C1CNC1 (stereo in doubt) [Ex. 9]', '≤0.03 µg/mL'),
  ('CC(=O)NNC(=O)[C@@H]1CC[C@@H]2CN1C(=O)N2OS(=O)(=O)O [Ex. 5]', '≤0.031 µg/mL');

**Query** What value of MIC Meropenem + inhibitor has been reported for the following compound? O=C(NO[C@H]1CCNC1)[C@@H]1CC[C@@H]2CN1C(=O)N2OS(=O)(=O)O [Ex. 1]
**Result** ≤.031 µg/mL

**Query** Input NCCONC(=O)[C@@H]1CC[C@@H]2CN1C(=O)N2OS(=O)(=O)O [Ex. 3]
**Result** ≤0.0312 µg/mL

**Query** Input O=C(NNC(=O)[C@H]1CC[C@H]2CN1C(=O)N2OS(=O)(=O)O)C1CC1 (stereo in doubt) [Ex. 7]
**Result** ≤0.0312 µg/mL

**Query** Input CCC(=O)NNC(=O)[C@@H]1CC[C@@H]2CN1C(=O)N2OS(=O)(=O)O [Ex. 8]
**Result** ≤0.0312 µg/mL
